Here, each record is paired with measured pEC50 data.
# system_under_test: hGPR40 (Homo sapiens)
# Sequence (O14842 whole entry): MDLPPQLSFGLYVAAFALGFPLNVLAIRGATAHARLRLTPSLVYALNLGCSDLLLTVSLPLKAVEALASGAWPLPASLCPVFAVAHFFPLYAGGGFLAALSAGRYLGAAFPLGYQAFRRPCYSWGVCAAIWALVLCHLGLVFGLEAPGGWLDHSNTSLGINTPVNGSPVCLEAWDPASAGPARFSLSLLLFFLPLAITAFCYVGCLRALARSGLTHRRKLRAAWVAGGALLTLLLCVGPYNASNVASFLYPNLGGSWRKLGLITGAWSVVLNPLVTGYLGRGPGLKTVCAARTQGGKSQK
# assay: Calcium flux assay to detect GPR40 activation
# test_settings: CHO-K cells stably expressing hGPR40; Fluo-4 NW; read for 4 min at 5 s intervals
pEC50: −log10 of the molar value.

- compound: "CO/N=C(\\COc1ccc(COc2ccc(C(CC(=O)O)C3CC3)cc2)cc1)c1ccccc1 (centres unmarked) [Compound 87]"
  pEC50: "< 7.00"
- compound: "CO/N=C(\\COc1ccc(COc2ccc(C(C#N)CC(=O)O)cc2)cc1)c1ccc(OC)cc1 (centres unmarked) [Compound 66]"
  pEC50: "> 8.00"
- compound: "CN(C)CCO/N=C(/c1ccccc1)c1cccc(COc2ccc(CCC(=O)O)cc2)c1 [Compound 11]"
  pEC50: "< 7.00"

## Task Could you share which pEC50 value was measured for CCOC(=O)CCc1ccc(OCc2ccc(OC/C(=N\OC)c3ccccc3)cc2)cc1OCC(=O)O [Compound 90] ?
## Result < 7.00

## Task Which pEC50 value is on record for CO/N=C(/COc1ccc(COc2ccc(C(C#N)CC(=O)O)cc2)cc1F)c1ccccc1 (racemic) [Compound 21] ?
## Result 7.00 to 8.00

## Task Look at this compound and give its reported pEC50. CO/N=C(\COc1ccc(COc2ccc(CCC(=O)O)cc2)cn1)c1ccccc1 [Compound 20]
## Result < 7.00

## Task What pEC50 value was documented for this compound, CO/N=C(\COc1ccc(CNc2ccc(CCC(=O)O)cc2)cc1)c1ccccc1 [Compound 4] ?
## Result 7.00 to 8.00

## Task Entry CON=C(COc1ccc(CNc2ccc(C3CC3C(=O)O)cc2)cc1)c1ccccc1 (mixture of isomers) [Compound 48] : reported pEC50 = ?
## Result 7.00 to 8.00
